Tested on: rodent lifetime carcinogenesis bioassay, tumor incidence TD50
Assay: carcinogenic potency in animals, long-term in vivo studies, CPDB compilation (AID 1745844)
Details: mouse; strain B6C3F1; males; in feed; site: any site (literature study); lesion: several types; types named in the paper; dosed 80 weeks; study length 105 weeks
Activity calls are given as the source filed them. The rule behind the calls is not given here.
assay-endpoint: TD50

Check the records and state TD50 for Nc1ccc(N=Nc2ccccc2)c(N)n1
496 mg/kg/day (inactive)

###

Reported TD50 values follow for various compounds
Tested on: rodent lifetime carcinogenesis bioassay, tumor incidence TD50
Assay: carcinogenic potency in animals, long-term in vivo studies, CPDB compilation (AID 1745844)
Conditions: mouse; strain B6AKF1; females; oral dosing; site: any site (literature study); lesion: several types; types named in the paper; dosed 81 weeks; study length 81 weeks

smiles-entry	assay-endpoint	recorded-result
CCN(CC)C(=S)S[Se](SC(=S)N(CC)CC)(SC(=S)N(CC)CC)SC(=S)N(CC)CC	TD50	10.5 mg/kg/day

Check the records and state TD50 for CCCc1ccc2c(c1)OCO2
305 mg/kg/day
